We begin with a simple list: items and their reported pKi.
Molecular target: human CB2 receptors (Homo sapiens, UniProt P34972)
Construct: expressed in transfected cells; membrane preparations
Sequence (P34972 whole entry): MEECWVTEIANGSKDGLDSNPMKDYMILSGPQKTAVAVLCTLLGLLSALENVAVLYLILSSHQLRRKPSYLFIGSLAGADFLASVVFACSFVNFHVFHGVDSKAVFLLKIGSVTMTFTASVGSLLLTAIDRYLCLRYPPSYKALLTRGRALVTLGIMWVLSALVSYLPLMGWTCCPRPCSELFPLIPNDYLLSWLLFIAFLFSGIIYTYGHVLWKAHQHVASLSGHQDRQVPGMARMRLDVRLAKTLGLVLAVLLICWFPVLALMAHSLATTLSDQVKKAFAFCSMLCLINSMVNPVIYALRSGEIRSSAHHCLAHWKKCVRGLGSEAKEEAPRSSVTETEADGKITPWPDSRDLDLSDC
Assay: Affinity for human CB2 cannabinoid receptors: inhibition of [3H]-CP55940 binding to transfected CHO-K1 cell membranes
Details: inhibition constant value range, [3H]-CP55940 1 nM, Cheng-Prusoff, read-out: Ki < 0.5 μM
Method: The affinity of the compounds of the present invention for the different sub-types of cannabinoid receptors was measured according to procedures analogous to those described hereafter for the human CB2 receptor. Study of the Affinity of the Compounds for the Human CB2 Cannabinoid Receptors: The affinity of the compounds of the invention for the human CB2 receptors is determined by measuring the inhibition of the binding of [^3H]-CP55940 to transfected CHO-K1 cell membrane preparations. […]
pKi: −log10 of the molar value.

Example entries begin here.
>>> df
                                   molecule  reported_value
0  Cc1cc2nc(-c3ccc(-c4c(Cl)cccc4Cl)cc3)n(CCN3CCCCC3)c(=O)c2s1          > 6.30
1  O=c1c2sccc2nc(-c2ccc(C3CCCCC3)cc2)n1CCN1CCCCC1          > 6.30
2  Cc1cccc(C)c1-c1ccc(-c2nc3ccsc3c(=O)n2CCN2CCCCC2)cc1          > 6.30

Lab request: please report pKi under test system human CB2 receptors (Homo sapiens, UniProt P34972) for O=c1c2sccc2nc(-c2ccc(-c3ccccc3F)cc2)n1CCN1CCCCC1
> 6.30

Param item: O=C(c1ccccc1)c1ccc(-c2nc3ccsc3c(=O)n2CCN2CCCCC2)cc1
> 6.30

Param item: O=c1c2sccc2nc(C2CCC(c3ccccc3)CC2)n1CCN1CCCCC1 (centres unmarked)
> 6.30

Param item: Cc1cc2nc(-c3ccc(-c4cccc(Cl)c4)cc3)n(CCN3CCCCC3)c(=O)c2s1
> 6.30

Param item: O=c1c2sccc2nc(-c2ccc(-c3cccc(F)c3)cc2)n1CCN1CCCCC1
> 6.30
